Please respond with reported pEC50 for every item in the list.
molecular target: RARγ (Homo sapiens); assay: Transactivation, RARγ; format: cell-based; conditions: Table III
Sequence (P13631 whole entry): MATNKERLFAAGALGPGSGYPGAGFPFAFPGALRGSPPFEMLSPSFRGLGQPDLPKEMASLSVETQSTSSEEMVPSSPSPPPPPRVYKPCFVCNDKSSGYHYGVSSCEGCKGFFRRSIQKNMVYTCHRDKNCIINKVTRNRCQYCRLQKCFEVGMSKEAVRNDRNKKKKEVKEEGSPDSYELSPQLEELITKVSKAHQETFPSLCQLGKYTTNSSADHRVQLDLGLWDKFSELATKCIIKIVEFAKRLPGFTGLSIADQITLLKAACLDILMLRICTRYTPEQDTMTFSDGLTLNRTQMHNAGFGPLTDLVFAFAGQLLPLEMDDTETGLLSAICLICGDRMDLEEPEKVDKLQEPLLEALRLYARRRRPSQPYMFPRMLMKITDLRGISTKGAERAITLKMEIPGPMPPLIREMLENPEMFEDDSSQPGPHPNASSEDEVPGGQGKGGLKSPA
Units for pEC50: none; it is -log10 of a concentration expressed in mol/L.

Asked: # lookup: pEC50 of CC1(C)CCOc2ccc(C(=O)/C=C/c3ccc(C(=O)O)cc3)cc21 [RAR Agonist 6]
Given back: 7.82

Asked: # lookup: pEC50 of CC(C)COc1ccc(-c2ccc3cc(C(=O)O)ccc3c2)cc1C(C)(C)C [RAR Agonist 2, reference compound]
Given back: 6.80

Asked: # lookup: pEC50 of CCCCCCc1cc2c(cc1/C=C/c1ccc(C(=O)O)cc1)C(C)(C)CCC2(C)C [RAR Agonist 3]
Given back: 7.82

Asked: # lookup: pEC50 of O=C(O)c1ccc(NC(=O)c2cc(C(F)(F)F)cc(C(F)(F)F)c2)cc1 [RAR Agonist 1, reference compound]
Given back: 5.00

Asked: # lookup: pEC50 of CCCCCC(=O)c1cc2c(cc1/C=C/c1ccc(C(=O)O)cc1)C(C)(C)CCC2(C)C [RAR Agonist 5]
Given back: 6.98
